Documented boiling point across a set of molecules
Respond numerically; units are °C and should not be typed.

Reference set, count: 3
- Molecule: "CC(=O)CCC(C)=O"
  Value Reported: 194
- Molecule: "CC(C)CBr"
  Value Reported: 91.1
- Molecule: "C=CCCCCCCCCO"
  Value Reported: 236

Query block: Return boiling point (reported value) for this molecule: COC(=O)c1cccc(C)c1
Result block: 221

Query block: Return boiling point (reported value) for this molecule: CCCC(=O)N(CC)CC
Result block: 206

====

Recorded Endpoint: melting point

Reference set, count: 3
- Input Smiles: "O=C1CCc2ccccc21"
  melting point: "42 °C"
- Input Smiles: "Cc1ccc(Cl)c(O)c1"
  melting point: "50.8 °C"
- Input Smiles: "CC(C)OC(=O)[C@H](C)N(C(=O)c1ccccc1)c1ccc(F)c(Cl)c1"
  melting point: "78.5 °C"

Query block: Return melting point (reported value) for this compound: OCC1CCCCC1
Result block: -43 °C

====

settings: fish
Documented log10 biotransformation half-life (days) across a set of compounds
Form rule: numeric answer, no unit written next to it.

- Input Smiles: "Oc1ccc(Cc2ccccc2)cc1"
  Recorded Endpoint: "log10 biotransformation half-life (days)"
  Value Reported: -0.86
- Input Smiles: "CCCCCCCCCCc1ccccc1"
  Recorded Endpoint: "log10 biotransformation half-life (days)"
  Value Reported: 0.63
- Input Smiles: "Nc1ccccc1[N+](=O)[O-]"
  Recorded Endpoint: "log10 biotransformation half-life (days)"
  Value Reported: -0.46

Query block: Return log10 biotransformation half-life (days) (reported value) for this compound: c1ccc2cc3c(cc2c1)-c1cccc2cccc-3c12
Result block: -0.06

Query block: Return log10 biotransformation half-life (days) (reported value) for this compound: O=C1c2ccccc2C(=O)c2c1ccc1ccccc21
Result block: -0.84

Query block: Return log10 biotransformation half-life (days) (reported value) for this compound: Clc1cccc(-c2c(Cl)cccc2Cl)c1Cl
Result block: 2.18

====

Documented log10 vapour pressure (mmHg) across a set of compounds
Form rule: numeric answer, no unit written next to it.

- Compound: "C1=CCCC1"
  log10 vapour pressure (mmHg): 2.58
- Compound: "FC(F)(F)c1ccc(Cl)cc1"
  log10 vapour pressure (mmHg): 0.882
- Compound: "C#CC=C"
  log10 vapour pressure (mmHg): 3.13
- Compound: "CC(C)(C)CC(C)(C)C"
  log10 vapour pressure (mmHg): 1.3
- Compound: "C=Cc1cccc(C)c1"
  log10 vapour pressure (mmHg): 0.231

Query block: Return log10 vapour pressure (mmHg) (reported value) for this compound: COc1c(O)c(Cl)c(Cl)c(Cl)c1Cl
Result block: -4.08

Query block: Return log10 vapour pressure (mmHg) (reported value) for this compound: O=C(OC1CCCCC1)c1ccccc1C(=O)OC1CCCCC1
Result block: -6.06

Query block: Return log10 vapour pressure (mmHg) (reported value) for this compound: BrC(Br)Br
Result block: 0.732

Query block: Return log10 vapour pressure (mmHg) (reported value) for this compound: Nc1cnc2ccccc2c1
Result block: -4.54

Query block: Return log10 vapour pressure (mmHg) (reported value) for this compound: CN(C)C
Result block: 3.21

Query block: Return log10 vapour pressure (mmHg) (reported value) for this compound: c1ccc2c(c1)c1ccccc1c1ccccc21
Result block: -7.68

Query block: Return log10 vapour pressure (mmHg) (reported value) for this compound: O=C(O)C(F)(F)C(F)(F)C(F)(F)F
Result block: 0.804

====

Recorded Endpoint: boiling point (°C)
Respond numerically; units are °C and should not be typed.

Reference set, count: 4
- Input Smiles: "CCOC(=O)c1ccco1"
  Uom: "°C"
  Value Reported: 197
- Input Smiles: "O=CC1CCCCC1"
  Uom: "°C"
  Value Reported: 159
- Input Smiles: "Oc1ccc(Br)cc1Br"
  Uom: "°C"
  Value Reported: 238
- Input Smiles: "CCOc1ccc(C)cc1"
  Uom: "°C"
  Value Reported: 188

Query block: Return boiling point (reported value) for this compound: CCCCCCCCCCCCCBr
Result block: 296

====

Recorded Endpoint: melting point (°C)
Respond numerically; units are °C and should not be typed.

- Molecule: "COc1cccc(C=O)c1O"
  Recorded Endpoint: "melting point"
  Value Reported: 44.5
- Molecule: "C=CCOc1nc(OCC=C)nc(OCC=C)n1"
  Recorded Endpoint: "melting point"
  Value Reported: 27
- Molecule: "C=Cc1ccc(N)cc1"
  Recorded Endpoint: "melting point"
  Value Reported: 23.5
- Molecule: "CC1=CC(=O)CCC1"
  Recorded Endpoint: "melting point"
  Value Reported: -21
- Molecule: "CCCCCCCCCCCCC(C)=O"
  Recorded Endpoint: "melting point"
  Value Reported: 33.5
- Molecule: "CC(C)(C)OCC1CO1 (stereo not drawn)"
  Recorded Endpoint: "melting point"
  Value Reported: -70
- Molecule: "ClC1=C(Cl)[C@]2(Cl)[C@H]3[C@H]([C@@H]4O[C@]4(Cl)[C@@H]3Cl)[C@@]1(Cl)C2(Cl)Cl (mixture of isomers)"
  Recorded Endpoint: "melting point"
  Value Reported: 144
- Molecule: "C=CCCCCCCCCCCCCCCCCCC"
  Recorded Endpoint: "melting point"
  Value Reported: 28.5
- Molecule: "CCCCCCCCCCCCCC(=O)OCc1ccccc1"
  Recorded Endpoint: "melting point"
  Value Reported: 20.5
- Molecule: "COc1ccc(C(=O)c2csc(S(N)(=O)=O)c2)cc1"
  Recorded Endpoint: "melting point"
  Value Reported: 174

Now look at this entry.
Query block: Return melting point (reported value) for this molecule: C=C(C)CC(C)(C)C
Result block: -93.5

====

Recorded Endpoint: melting point (°C)
Respond numerically; units are °C and should not be typed.

Query block: Return melting point (reported value) for this compound: COc1cc2c(cc1OC)C(=O)NCC2
Result block: 175

Query block: Return melting point (reported value) for this compound: COc1cc(O)c(C(=O)c2ccccc2)cc1S(=O)(=O)O
Result block: 145

Query block: Return melting point (reported value) for this compound: Cc1ccc(C)nc1
Result block: -16

Query block: Return melting point (reported value) for this compound: CCCCCCCCCCCCCCC1CCCCC1
Result block: 24

Query block: Return melting point (reported value) for this compound: O=C1C=C(Cl)C(=O)C(Cl)=C1
Result block: 123

Query block: Return melting point (reported value) for this compound: COC(=O)c1ccccc1S(=O)(=O)NC(=O)Nc1nc(OC(F)F)cc(OC(F)F)n1
Result block: 196

Query block: Return melting point (reported value) for this compound: NC(=O)OCc1ccccc1
Result block: 88

Query block: Return melting point (reported value) for this compound: OC1c2ccccc2Oc2ccccc21
Result block: 128

====

Recorded Endpoint: melting point (°C)
Respond numerically; units are °C and should not be typed.

Reference set, count: 5
- Compound: "NC(=O)c1cccc2ccccc12"
  melting point (°C): 206
- Compound: "C[C@@H]1CC[C@H]2[C@@H]1[C@H]1[C@@H](CC[C@@]2(C)O)C1(C)C"
  melting point (°C): 105
- Compound: "CCCOC(=O)c1ccc(N)cc1"
  melting point (°C): 75
- Compound: "Cc1cc(C2CCCCC2)n(O)c(=O)c1"
  melting point (°C): 144
- Compound: "CCC(CC)Nc1c([N+](=O)[O-])cc(C)c(C)c1[N+](=O)[O-]"
  melting point (°C): 56

Query block: Return melting point (reported value) for this compound: Cc1c2ccccc2cc2ccc3ccccc3c12
Result block: 138

Query block: Return melting point (reported value) for this compound: COc1ccc2c(c1)CC[C@@H]1[C@@H]2CC[C@]2(C)C(=O)[C@H](Cl)C[C@@H]12
Result block: 180

Query block: Return melting point (reported value) for this compound: CNc1nc(NC(C)C)nc(SC)n1
Result block: 85

Query block: Return melting point (reported value) for this compound: C=CC(Cl)CCl (stereo not drawn)
Result block: -61

Query block: Return melting point (reported value) for this compound: c1ccc(-c2ccccc2-c2ccccc2)cc1
Result block: 56.2

Query block: Return melting point (reported value) for this compound: CCOC(=O)[C@@H](N)CS.Cl
Result block: 124

Query block: Return melting point (reported value) for this compound: O=c1[nH]cc(C(F)(F)F)c(=O)[nH]1
Result block: 316

====

Recorded Endpoint: boiling point (°C)
Respond numerically; units are °C and should not be typed.

Reference set, count: 3
- Input Smiles: "COCC(=O)O"
  Value Reported: 204
- Input Smiles: "CC(C)(C)NCCNC(C)(C)C"
  Value Reported: 197
- Input Smiles: "ClC(Cl)(Cl)CC(Cl)(Cl)Cl"
  Value Reported: 206

Query block: Return boiling point (reported value) for this compound: CCCCCOC(=O)CCCC
Result block: 204

====

Documented melting point across a set of compounds

- Compound: "CC(C)OC(=O)C(O)(c1ccc(Cl)cc1)c1ccc(Cl)cc1"
  melting point: "73 °C"
- Compound: "COc1cc2c(c(O)c1OC)[C@H](C)NCC2"
  melting point: "160 °C"
- Compound: "OCc1ccccc1C(c1ccc(O)cc1)c1ccc(O)cc1"
  melting point: "202 °C"
- Compound: "CCNc1nc(NC(C)CC)nc(OC)n1 (stereo not given)"
  melting point: "87 °C"

Now look at this entry.
Query block: Return melting point (reported value) for this compound: CCCCCCCCCCCCN(C)C
Result block: 22 °C
